Property: pEC50; scope: individual molecules
molecular target: FXR (Homo sapiens (Human), UniProt Q96RI1); assay: FXR EC50 (FXR agonist activity reported with each example); type: cell-based
Sequence (Q96RI1 262-486): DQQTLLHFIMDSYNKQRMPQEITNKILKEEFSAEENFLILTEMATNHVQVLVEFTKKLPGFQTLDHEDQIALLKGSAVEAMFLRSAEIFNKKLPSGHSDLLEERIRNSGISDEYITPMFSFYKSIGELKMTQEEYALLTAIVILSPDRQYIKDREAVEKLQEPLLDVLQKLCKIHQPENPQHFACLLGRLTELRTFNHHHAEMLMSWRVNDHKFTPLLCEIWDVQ
Please note pEC50 is a logarithmic value: minus log10 of concentration in mol/L. Answer with that number alone.

1. CC(C)Oc1cc(C(=O)O)nc2c(F)cc(OCC34CCC(OCc5c(-c6c(Cl)cncc6Cl)noc5C5CC5)(CC3)CC4)cc12 : 7.96
2. CCn1nc(OCC23CCC(OCc4c(-c5c(Cl)cncc5Cl)noc4C4CC4)(CC2)CC3)cc1C(=O)O : 7.19
3. O=C(O)c1cc(-c2noc(C34CCC(/C=C/c5c(-c6c(Cl)cncc6Cl)noc5C5CC5)(CC3)CC4)n2)ccc1OC(F)F : 6.46

Exercise: Indicate the recorded pEC50 value for this molecule: O=C(O)c1cccc(-c2noc(C34CCC(OCc5c(-c6c(Cl)cncc6Cl)noc5C5CC5)(CC3)CC4)n2)n1
Key: 6.24

Exercise: Indicate the recorded pEC50 value for this molecule: COc1cc(OCC23CCC(OCc4c(-c5c(Cl)cncc5Cl)noc4C4CC4)(CC2)CC3)ncc1C(=O)O
Key: 7.38

Exercise: Indicate the recorded pEC50 value for this molecule: O=C(O)c1cc(-c2noc(C34CCC(OCc5c(-c6c(Cl)cccc6Cl)noc5C5CC5)(CC3)CC4)n2)ccn1
Key: 6.89

Exercise: Indicate the recorded pEC50 value for this molecule: O=C(O)c1cc(-c2nc(C34CCC(OCc5c(-c6ccccc6OC(F)(F)F)noc5C5CC5)(CC3)CC4)no2)ccn1
Key: 5.40

Exercise: Indicate the recorded pEC50 value for this molecule: Cc1cc(C#CC23CCC(OCc4c(-c5c(Cl)cncc5Cl)noc4C4CC4)(CC2)CC3)cnc1C(=O)O
Key: 7.26

Exercise: Indicate the recorded pEC50 value for this molecule: O=C(O)c1cc(OCC2COC2)c2cc(OCC34CCC(OCc5c(-c6c(Cl)cncc6Cl)noc5C5CC5)(CC3)CC4)ccc2n1
Key: 6.85

Exercise: Indicate the recorded pEC50 value for this molecule: O=C(O)c1cc(OCC23CCC(/C=C/c4c(-c5c(Cl)cncc5Cl)noc4C4CC4)(CC2)CO3)cc(OC(F)F)c1
Key: 6.80

----------
biological target: FXR (Homo sapiens (Human), UniProt Q96RI1); assay: FXR EC50 (FXR agonist activity reported with each example); assay type: cell-based
Property: EC50; scope: individual molecules
Report the figure in nM without appending any unit label.

1) COc1ccc(C(=O)O)c2ccc(C34CCC(OCc5c(-c6c(Cl)cncc6Cl)noc5C5CC5)(CC3)CC4)nc12 : 18
2) O=C(O)c1cc(C#CC23CCC(OCc4c(-c5c(Cl)cncc5Cl)noc4C4CC4)(CC2)CC3)cc2cn[nH]c12 : 74
3) CC(C)(O)COc1ccc(C(=O)O)c2ccc(C34CCC(OCc5c(-c6c(Cl)cncc6Cl)noc5C5CC5)(CC3)CC4)nc12 : 120
4) O=C(O)c1ccc(C(O)C23CCC(OCc4c(-c5c(Cl)cccc5Cl)noc4C4CC4)(CC2)CC3)c(F)c1 (stereo not shown) : 1600
5) O=C(O)c1ccc(C2CC2)c2nc(C34CCC(OCc5c(C(C6CC6)C6CC6)noc5C5CC5)(CC3)CC4)ccc12 : 500
6) O=C(O)c1cc(C(F)(F)F)c2cc(OCC34CCC(/C=C/c5c(-c6c(Cl)cncc6Cl)noc5C5CC5)(CC3)CO4)ccc2n1 : 160

Now for the molecule whose EC50 we want.
Exercise: Indicate the recorded EC50 value for this molecule: O=C(O)[C@@H]1CCC[C@H](OCC23CCC(OCc4c(-c5ccccc5OC(F)(F)F)noc4C4CC4)(CC2)CC3)C1 [Example 80]
Key: 5100

----------
molecular target: FXR (Homo sapiens (Human), UniProt Q96RI1); test: FXR EC50 (FXR agonist activity reported with each example); format: cell-based
# strict inequality: EC50 < 0.1 µM yields class 1, everything else yields class 0

1) O=C(O)c1ccnc(OCC23CCC(OCc4c(-c5c(Cl)cccc5Cl)noc4C4CC4)(CC2)CC3)c1 : class 0

Exercise: State whether 0.1 µM exceeds EC50 recorded for O=C(O)c1cnc(C#CC23CCC(OCc4c(-c5c(Cl)cncc5Cl)noc4C4CC4)(CC2)CC3)cc1C(F)(F)F .
Key: class 0

Exercise: State whether 0.1 µM exceeds EC50 recorded for O=C(O)c1cccc(-c2noc(C34CCC(/C=C/c5c(-c6c(Cl)cncc6Cl)noc5C5CC5)(CC3)CO4)n2)c1 .
Key: class 0

Exercise: State whether 0.1 µM exceeds EC50 recorded for O=C(O)c1ccc(-c2nc(C34CCC(OCc5c(-c6ccccc6C(F)(F)F)noc5C5CC5)(CC3)CC4)no2)cc1 .
Key: class 0

Exercise: State whether 0.1 µM exceeds EC50 recorded for O=C(O)c1cccc2nc(C34CCC(/C=C\c5c(-c6c(Cl)cccc6Cl)noc5C5CC5)(CC3)CC4)sc12 .
Key: class 0

Exercise: State whether 0.1 µM exceeds EC50 recorded for COc1nc(C(=O)O)cc2ccc(C#CC34CCC(OCc5c(-c6c(Cl)cncc6Cl)noc5C5CC5)(CC3)CC4)cc12 .
Key: class 1

Exercise: State whether 0.1 µM exceeds EC50 recorded for O=C(O)c1ccc(CNC(=O)C23CCC(OCc4c(-c5c(Cl)cccc5Cl)noc4C4CC4)(CC2)CC3)cc1 .
Key: class 0

Exercise: State whether 0.1 µM exceeds EC50 recorded for O=C(O)c1cc(OC2CCC2)c2cc(C#CC34CCC(OCc5c(-c6c(Cl)cncc6Cl)noc5C5CC5)(CC3)CC4)ccc2n1 .
Key: class 1

Exercise: State whether 0.1 µM exceeds EC50 recorded for O=C(O)c1ccc2nc(C34CCC(COCc5c(-c6c(Cl)cccc6Cl)noc5C5CC5)(CC3)CC4)oc2c1 .
Key: class 0

Exercise: State whether 0.1 µM exceeds EC50 recorded for COc1ccc(-c2noc(C34CCC(/C=C/c5c(-c6c(Cl)cncc6Cl)noc5C5CC5)(CC3)CO4)n2)cc1C(=O)O .
Key: class 0

Exercise: State whether 0.1 µM exceeds EC50 recorded for O=C(O)c1cccc(-c2noc(C34CCC(/C=C\c5c(-c6c(Cl)cccc6Cl)noc5C5CC5)(CC3)CC4)n2)c1 .
Key: class 0

Exercise: State whether 0.1 µM exceeds EC50 recorded for O=C(O)c1cccc(C23CCC(COCc4c(-c5c(Cl)cncc5Cl)noc4C4CC4)(CC2)CO3)c1 .
Key: class 0

Exercise: State whether 0.1 µM exceeds EC50 recorded for O=C(O)c1cccc(/C=C/C23CCC(COCc4c(-c5ccccc5OC(F)(F)F)noc4C4CC4)(CC2)CO3)c1 .
Key: class 1

Exercise: State whether 0.1 µM exceeds EC50 recorded for O=C(O)c1cccc(-c2nc(C34CCC(OCc5c(-c6ccccc6OC(F)(F)F)noc5C5CC5)(CC3)CC4)no2)c1 .
Key: class 0

Exercise: State whether 0.1 µM exceeds EC50 recorded for O=C(O)c1ccc(C23CCC(OCc4c(-c5c(Cl)cccc5Cl)noc4C4CC4)(CC2)CC3)nc1 .
Key: class 0

Exercise: State whether 0.1 µM exceeds EC50 recorded for O=C(O)C1(c2cccc(C(O)C34CCC(OCc5c(-c6c(Cl)cccc6Cl)noc5C5CC5)(CC3)CC4)c2)CC1 (stereo not drawn) .
Key: class 0

Exercise: State whether 0.1 µM exceeds EC50 recorded for O=C(O)c1ccc2cc(OCC34CCC(OCc5c(-c6c(Cl)cncc6Cl)noc5C5CC5)(CC3)CC4)ccc2n1 .
Key: class 1

----------
biological target: FXR (Homo sapiens (Human), UniProt Q96RI1); test: FXR EC50 (FXR agonist activity reported with each example); type: cell-based
Property: EC50; scope: individual compounds
Report the figure in nM without appending any unit label.

Examples from the recorded data:
1. CC(C)Oc1ccc(-c2noc(C34CCC(OCc5c(-c6c(Cl)cncc6Cl)noc5C5CC5)(CC3)CC4)n2)cc1C(=O)O [Example 256] : 260
2. COc1cc(OCC23CCC(/C=C/c4c(-c5c(Cl)cncc5Cl)noc4C4CC4)(CC2)CC3)cc(C(=O)O)c1 [Example 493] : 18
3. O=C(O)c1ccc2c(c1)CN(CC13CCC(OCc4c(-c5c(Cl)cccc5Cl)noc4C4CC4)(CC1)CC3)CC2 [Example 362] : 170

Exercise: Indicate the recorded EC50 value for this compound: COc1cc(OCC23CCC(/C=C/c4c(-c5c(Cl)cncc5Cl)noc4C4CC4)(CC2)OC3)cc(C(=O)O)c1 [Example 474]
Key: 490

----------
biological target: FXR (Homo sapiens (Human)); assay: FXR EC50 (FXR agonist activity reported with each example); assay type: cell-based
measure_name: pEC50
Please note pEC50 is a logarithmic value: minus log10 of concentration in mol/L. Answer with that number alone.

Examples from the recorded data:
1) COC(=O)c1ccc(NC(=O)C23CCC(COCc4c(-c5c(Cl)cccc5Cl)noc4C4CC4)(CC2)CC3)c(Cl)c1 [Intermediate 170A] : 5.62
2) COc1cncc(Cl)c1-c1noc(C2CC2)c1/C=C/C12CCC(c3ccc(C(C)(C)C(=O)O)cc3)(CC1)OC2 : 5.35
3) O=C(O)c1cccc(-c2noc(C34CCC(OCc5c(-c6c(Cl)cncc6Cl)noc5C5CC5)(CC3)CO4)n2)c1 : 6.31

Exercise: Indicate the recorded pEC50 value for this compound: O=C(O)c1cc(C(F)(F)F)cc(C#CC23CCC(OCc4c(-c5c(Cl)cncc5Cl)noc4C4CC4)(CC2)CC3)n1
Key: 6.34

Exercise: Indicate the recorded pEC50 value for this compound: COc1cc(C(=O)O)nc2ccc(OCC34CCC(OCc5c(-c6ccccc6C(F)(F)F)noc5C5CC5)(CC3)CC4)cc12
Key: 6.82

Exercise: Indicate the recorded pEC50 value for this compound: O=C(O)c1cc(OC2COC2)c2cc(OCC34CCC(OCc5c(-c6c(Cl)cncc6Cl)noc5C5CC5)(CC3)CC4)ccc2n1
Key: 7.15

Exercise: Indicate the recorded pEC50 value for this compound: CCOc1cc(OCC23CCC(OCc4c(-c5ccccc5C(F)(F)F)noc4C4CC4)(CC2)CC3)cnc1C(N)=O
Key: 5.64

Exercise: Indicate the recorded pEC50 value for this compound: O=C(O)c1cc(OC(F)F)c2cc(OCC34CCC(/C=C/c5c(-c6c(Cl)cncc6Cl)noc5C5CC5)(CC3)OC4)ccc2n1
Key: 6.54

Exercise: Indicate the recorded pEC50 value for this compound: COc1ccc(-c2noc(C34CCC(/C=C/c5c(-c6c(Cl)cncc6Cl)noc5C5CC5)(CC3)CC4)n2)cc1C(=O)NS(C)(=O)=O
Key: 7.48

Exercise: Indicate the recorded pEC50 value for this compound: O=C(O)c1cc(-c2noc(C34CCC(/C=C/c5c(-c6c(Cl)cncc6Cl)noc5C5CC5)(CC3)CO4)n2)cc(C(F)(F)F)c1
Key: 6.92

Exercise: Indicate the recorded pEC50 value for this compound: O=C(O)c1cccc2nc(C34CCC(/C=C/c5c(-c6c(Cl)cncc6Cl)noc5C5CC5)(CC3)CC4)sc12
Key: 7.51

Exercise: Indicate the recorded pEC50 value for this compound: O=C(O)c1cc(OC(F)F)c2cc(OCC34CCC(/C=C/c5c(-c6c(Cl)cncc6Cl)noc5C5CC5)(CC3)CC4)ccc2n1
Key: 7.46

Exercise: Indicate the recorded pEC50 value for this compound: COc1ccc(-c2noc(C34CCC(OCc5c(-c6c(Cl)cnn6C)noc5C5CC5)(CC3)CC4)n2)cc1C(=O)O
Key: 5.48

Exercise: Indicate the recorded pEC50 value for this compound: O=C(O)c1coc(C23CCC(COCc4c(-c5c(Cl)cccc5Cl)noc4C4CC4)(CC2)CC3)n1
Key: 5.74

Exercise: Indicate the recorded pEC50 value for this compound: O=C(O)c1csc(C23CCC(/C=C/c4c(-c5c(Cl)cncc5Cl)noc4C4CC4)(CC2)CC3)n1
Key: 6.39
